- Test system: SN12C renal
- PROCEDURE_TEXT: NCI-60 one-dose screen, 48 h
- EXPERIMENTAL_PARAMETERS: 10 µM unless noted
Compounds without any hit were thinned out: in the full panel of roughly 83,000, 20% have a hit. Calls of active or inactive are those of the source. How the source made its calls: active means growth percent below 10; inactive means the rest.
Reply using exactly one outcome from YES = active, NO = inactive

Please review the following examples before continuing.
[in] Give the logged outcome of this assay for the following compound: `O=C(Nc1ccc2cc3ccc(NC(=O)N4CCCCCC4)cc3nc2c1)N1CCCCCC1`
[out] YES

[in] Record lookup: outcome of this test for `COc1ccc(Cc2nc3cc(OC)c(OC)cc3c(=O)[nH]2)cc1` ?
[out] NO

[in] Hi team, can someone confirm the assay call for Brc1ccc(C2CC(c3cccc(Nc4ccncc4)c3)=NN2c2ccccc2)cc1 (stereo not given) ?
[out] NO

[in] // outcome(item) with item = `O=C(NCCN1CCOCC1)OCc1nc2nc(Cl)nc(N3CCOCC3)c2[nH]1`
[out] NO

[in] Per the records of this test, what outcome belongs to `CN(C)c1ccc(-c2c(C#N)c(N)n3nc(N)c(C#N)c3c2C#N)cc1` ?
[out] NO

[in] Each compound tested received a call. Report the one for `Cc1[nH]n(C(=O)c2ccncc2)c(=O)c1N=Nc1ccc(F)c(Cl)c1` .
[out] NO

[in] # outcome recorded in this test, key = `CC(C)(C)OC(=O)N1C/C(=C\c2ccoc2)C(=O)/C(=C/c2ccoc2)C1`
[out] NO

[in] Write down the call the test reported for this compound. Item: `C=CCn1c(SCC(=O)Nc2ccc(C(=O)/C=C/c3cc(OC)c(OC)c(OC)c3)cc2)nnc1-c1cc(-c2ccc(S(C)(=O)=O)cc2)nc2ccccc12`
[out] NO

---
[in] Which outcome was assigned to `N#Cc1c(NC(=O)c2cccc(Br)c2)sc2c1CCCC2` in this test?
[out] NO

[in] Name the outcome recorded for `N/C(=N\N=C\c1cc2ccccc2s1)N/N=C/c1cc2ccccc2s1` in the assay.
[out] NO

[in] Fill in: this test's call for `CS(=O)(=O)c1ccc(-c2cc(-c3nnc(SCC(=O)Nc4ccc(C(=O)/C=C/c5ccc(Cl)cc5)cc4)n3-c3ccccc3)c3ccccc3n2)cc1` is ___
[out] NO

[in] For `CCCCCCCCOC(=O)c1ccc(O)c(OC)c1` , what call appears in the results of this test?
[out] NO

[in] Tell me the assay call for `C#CC(=O)Nc1cccc(Nc2nc3c(c(NCc4ccccc4)n2)CCCC3)c1` please.
[out] YES

[in] Identify the outcome logged in this assay for the compound shown: `CN1CCN(c2c(F)cc(NC3=C(Cl)C(=O)c4ncccc4C3=O)cc2F)CC1`
[out] NO

[in] Status in this test for `CCCCc1ccc(Nc2nnc(SCC(=O)NC(=O)NCC)s2)cc1` ?
[out] NO
